The reported measurements were obtained from patent US20120039802A1.

Target: T1, cMet-Fc fusion protein (extracellular domain of the cMet receptor expressed as an Fc-fusion protein) (human, UniProt P08581 25-932)
T1 construct: extracellular domain; also called soluble cMet-Fc-fusion protein; soluble cMet receptor; not shown: Fc part
T1 sequence (P08581 25-932): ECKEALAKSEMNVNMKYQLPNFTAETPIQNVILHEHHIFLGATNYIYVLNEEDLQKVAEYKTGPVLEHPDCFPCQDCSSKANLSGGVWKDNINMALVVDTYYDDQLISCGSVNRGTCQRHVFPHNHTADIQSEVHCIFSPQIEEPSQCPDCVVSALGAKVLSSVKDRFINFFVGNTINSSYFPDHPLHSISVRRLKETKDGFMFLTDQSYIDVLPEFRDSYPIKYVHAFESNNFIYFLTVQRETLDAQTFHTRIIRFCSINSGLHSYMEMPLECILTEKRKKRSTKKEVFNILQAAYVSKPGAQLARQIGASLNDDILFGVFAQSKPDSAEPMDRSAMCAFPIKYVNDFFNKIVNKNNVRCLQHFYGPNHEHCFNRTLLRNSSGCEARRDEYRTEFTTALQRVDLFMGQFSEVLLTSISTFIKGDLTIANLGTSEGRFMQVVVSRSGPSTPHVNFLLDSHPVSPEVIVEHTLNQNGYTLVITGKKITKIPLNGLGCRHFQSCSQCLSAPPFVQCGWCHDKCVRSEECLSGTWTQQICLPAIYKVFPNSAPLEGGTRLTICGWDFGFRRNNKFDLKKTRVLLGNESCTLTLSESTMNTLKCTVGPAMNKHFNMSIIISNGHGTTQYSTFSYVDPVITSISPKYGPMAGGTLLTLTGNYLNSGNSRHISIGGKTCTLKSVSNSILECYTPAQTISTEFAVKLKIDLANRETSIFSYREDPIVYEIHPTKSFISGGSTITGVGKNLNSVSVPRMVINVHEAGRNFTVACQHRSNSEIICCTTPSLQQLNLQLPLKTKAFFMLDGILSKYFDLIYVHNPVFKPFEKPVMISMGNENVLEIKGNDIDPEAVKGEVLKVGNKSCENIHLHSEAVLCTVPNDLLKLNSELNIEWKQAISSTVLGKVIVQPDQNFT
Assay: phage ELISA on cMet-Fc, competitor HGF 100 ng/mL
Measured % of binding in the absence of HGF of individual entries

Binder: GSFFPCWRIDRFGYCHANAP [551-H10 peptide-displaying phage (SEQ ID NO: 370)]
% of binding in the absence of HGF (%): 88
//
Binder: GDYDYCDFDLETYIPECHSYDP [546-G02 peptide-displaying phage (SEQ ID NO: 390)]
% of binding in the absence of HGF (%): 32
//
Binder: GDYSECFFEPDSFEVKCYDRDP [545-H12 peptide-displaying phage (SEQ ID NO: 399)]
% of binding in the absence of HGF (%): 74
//
Binder: AQHGYLSPLKQYQMSHVEFWTY [94-A06 peptide-displaying phage (SEQ ID NO: 476)]
% of binding in the absence of HGF (%): 84
//
Binder: AGPYSCHSESHDCKLMGT [465-C01 peptide-displaying phage (SEQ ID NO: 032)]
% of binding in the absence of HGF (%): 267
//
Binder: AGDFICQGPPSFVCTNIGT [550-A08 peptide-displaying phage (SEQ ID NO: 097)]
% of binding in the absence of HGF (%): 52
//
Binder: GSGDPCSPGPSINGHCSVMAP [453-A05 peptide-displaying phage (SEQ ID NO: 382)]
% of binding in the absence of HGF (%): 51
//
Binder: GSELFCFYHHQGYEGCDVLAP [465-B07 peptide-displaying phage (SEQ ID NO: 385)]
% of binding in the absence of HGF (%): 111
//
Binder: AGQMWCAEKNSKCYQWGT [465-D12 peptide-displaying phage (SEQ ID NO: 030)]
% of binding in the absence of HGF (%): 34
//
Binder: AQVGSPMLPSWFSFEANWSS [95-A11 peptide-displaying phage (SEQ ID NO: 456)]
% of binding in the absence of HGF (%): 109
//
Binder: AGYWHCKGPPHFACEFHGT [331-D03 peptide-displaying phage (SEQ ID NO: 077)]
% of binding in the absence of HGF (%): 64
//
Binder: AGDGWCMAWPEICEWLGT [434-E12 peptide-displaying phage (SEQ ID NO: 014)]
% of binding in the absence of HGF (%): 117
//
Binder: GSTKVCHEKWNQLFCHNQAP [549-G01 peptide-displaying phage (SEQ ID NO: 368)]
% of binding in the absence of HGF (%): 62
//
Binder: GSFILCWWTFCDTNAP [569-C03 peptide-displaying phage (SEQ ID NO: 007)]
% of binding in the absence of HGF (%): 95
//
Binder: AQGFELWVDHTRNFFIAISP [127-A07 peptide-displaying phage (SEQ ID NO: 469)]
% of binding in the absence of HGF (%): 101
//
Binder: GSDMNCTVLAQDQIFCFREAP [451-C06 peptide-displaying phage (SEQ ID NO: 386)]
% of binding in the absence of HGF (%): 108
